The entries below come with measured IC50 values attached.
molecular target: UniProt:P50406; test: Basal cAMP production (constitutive Gs signaling) in NG108-15 cells transiently expressing 5-HT6R, CAMYEL BRET; assay type: cell-based; set-up: expressed in transfected cells; host or cells: NG108-15 (transient, Lipofectamine 2000, cotransfected with the CAMYEL sensor); details: decrease of basal cAMP, NG108-15 cells transiently expressing 5-HT6R

compound string: O=C(N[C@H]1CCNC1)c1ccn(S(=O)(=O)c2cccc(Cl)c2)c1-c1ccc(F)cc1
u: µM
IC50: 0.14
--
compound string: O=C(N[C@H]1CCNC1)c1ccn(S(=O)(=O)c2cccc(Cl)c2)c1-c1ccccc1
u: µM
IC50: 0.17
--
compound string: O=C(N[C@@H]1CCNC1)c1ccn(S(=O)(=O)c2cccc(Cl)c2)c1-c1ccc(F)cc1
u: µM
IC50: 0.265
--
compound string: O=C(N[C@H]1CCNC1)c1ccn(S(=O)(=O)c2cccc(Cl)c2)c1-c1cccc(F)c1
u: µM
IC50: 0.306

* * *

List of pKi tested on 5-HT2AR (Homo sapiens).
Sequence (P28223 whole entry): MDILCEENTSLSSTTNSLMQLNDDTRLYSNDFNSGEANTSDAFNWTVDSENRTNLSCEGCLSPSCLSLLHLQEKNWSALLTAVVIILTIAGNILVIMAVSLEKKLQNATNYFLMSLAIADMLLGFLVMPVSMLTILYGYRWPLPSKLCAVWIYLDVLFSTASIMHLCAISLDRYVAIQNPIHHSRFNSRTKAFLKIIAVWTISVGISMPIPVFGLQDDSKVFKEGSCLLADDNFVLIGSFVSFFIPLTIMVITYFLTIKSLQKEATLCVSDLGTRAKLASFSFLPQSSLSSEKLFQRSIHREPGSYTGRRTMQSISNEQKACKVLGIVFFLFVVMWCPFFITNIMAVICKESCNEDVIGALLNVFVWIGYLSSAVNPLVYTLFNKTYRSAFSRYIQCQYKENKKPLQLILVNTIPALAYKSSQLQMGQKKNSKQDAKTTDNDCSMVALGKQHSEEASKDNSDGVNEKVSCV
pKi: −log10 of the molar value.
readout label: pKi

compound: O=C(N[C@H]1CCNC1)c1ccn(S(=O)(=O)c2cccc(Cl)c2)c1-c1cccc(F)c1 [Compound 22]
system name: 5-HT2AR (Homo sapiens)
readout label: pKi
observed result: 4.82

compound: O=C(N[C@@H]1CCNC1)c1ccn(S(=O)(=O)c2cccc(Cl)c2)c1-c1ccc(F)cc1 [Compound 27]
system name: 5-HT2AR (Homo sapiens)
readout label: pKi
observed result: 4.87

compound: O=C(N[C@H]1CCNC1)c1ccn(S(=O)(=O)c2cccc(Cl)c2)c1-c1ccccc1 [Compound 18]
system name: 5-HT2AR (Homo sapiens)
readout label: pKi
observed result: 4.84

compound: O=C(N[C@H]1CCNC1)c1ccn(S(=O)(=O)c2cccc(Cl)c2)c1-c1ccc(F)cc1 [Compound 28]
system name: 5-HT2AR (Homo sapiens)
readout label: pKi
observed result: 5.07

* * *

target: D2R (Homo sapiens, UniProt P14416)
Sequence (P14416 whole entry): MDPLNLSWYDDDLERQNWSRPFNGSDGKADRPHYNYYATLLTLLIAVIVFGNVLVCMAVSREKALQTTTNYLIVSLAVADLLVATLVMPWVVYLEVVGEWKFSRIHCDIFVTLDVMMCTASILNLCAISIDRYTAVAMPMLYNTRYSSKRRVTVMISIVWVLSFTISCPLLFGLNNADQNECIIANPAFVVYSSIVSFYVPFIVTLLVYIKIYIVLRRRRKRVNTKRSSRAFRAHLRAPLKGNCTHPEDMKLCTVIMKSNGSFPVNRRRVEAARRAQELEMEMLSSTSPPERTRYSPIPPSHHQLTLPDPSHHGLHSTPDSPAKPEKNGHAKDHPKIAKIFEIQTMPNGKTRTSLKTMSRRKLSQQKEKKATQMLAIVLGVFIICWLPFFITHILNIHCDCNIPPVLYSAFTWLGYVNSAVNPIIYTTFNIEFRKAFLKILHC
pKi: −log10 of the molar value.
Form field: pKi (one value per entry).

molecule: O=C(N[C@@H]1CCNC1)c1ccn(S(=O)(=O)c2cccc(Cl)c2)c1-c1ccc(F)cc1 [Compound 27]
system name: D2R (Homo sapiens, UniProt P14416)
pKi: 5.15
--
molecule: O=C(N[C@H]1CCNC1)c1ccn(S(=O)(=O)c2cccc(Cl)c2)c1-c1cccc(F)c1 [Compound 22]
system name: D2R (Homo sapiens, UniProt P14416)
pKi: 5.18
--
molecule: O=C(N[C@H]1CCNC1)c1ccn(S(=O)(=O)c2cccc(Cl)c2)c1-c1ccc(F)cc1 [Compound 28]
system name: D2R (Homo sapiens, UniProt P14416)
pKi: 5.13
--
molecule: O=C(N[C@H]1CCNC1)c1ccn(S(=O)(=O)c2cccc(Cl)c2)c1-c1ccccc1 [Compound 18]
system name: D2R (Homo sapiens, UniProt P14416)
pKi: 5.16

* * *

System: UniProt:P08908 | Read-out: Ki
Sequence (P08908 whole entry): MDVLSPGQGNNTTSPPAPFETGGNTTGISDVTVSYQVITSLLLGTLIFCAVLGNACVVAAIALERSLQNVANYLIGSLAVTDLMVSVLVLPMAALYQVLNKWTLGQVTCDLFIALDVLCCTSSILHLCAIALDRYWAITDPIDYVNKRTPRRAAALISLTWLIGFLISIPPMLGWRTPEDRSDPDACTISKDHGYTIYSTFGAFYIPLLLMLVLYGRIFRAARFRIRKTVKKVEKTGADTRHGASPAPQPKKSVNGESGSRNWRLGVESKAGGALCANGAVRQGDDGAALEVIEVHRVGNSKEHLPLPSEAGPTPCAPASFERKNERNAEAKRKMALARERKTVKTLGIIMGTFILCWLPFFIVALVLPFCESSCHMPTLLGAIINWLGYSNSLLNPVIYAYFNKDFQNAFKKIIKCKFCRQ

compound string: O=C(N[C@@H]1CCNC1)c1ccn(S(=O)(=O)c2cccc(Cl)c2)c1-c1ccc(F)cc1
u: µM
Ki: 53.7
//
compound string: O=C(N[C@H]1CCNC1)c1ccn(S(=O)(=O)c2cccc(Cl)c2)c1-c1cccc(F)c1
u: µM
Ki: 65.7
//
compound string: O=C(N[C@H]1CCNC1)c1ccn(S(=O)(=O)c2cccc(Cl)c2)c1-c1ccc(F)cc1
u: µM
Ki: 61.5
//
compound string: O=C(N[C@H]1CCNC1)c1ccn(S(=O)(=O)c2cccc(Cl)c2)c1-c1ccccc1
u: µM
Ki: 1.37

* * *

assay: In vivo pharmacokinetic study, plasma and brain; set-up: species or system male Wistar rats; conditions: male, Wistar, po; plasma, rat, 10 mg/kg p.o.

compound: O=C(N[C@@H]1CCNC1)c1ccn(S(=O)(=O)c2cccc(Cl)c2)c1-c1ccc(F)cc1 [Compound 27]
Cmax / ng/mL: 1040

compound: O=C(N[C@H]1CCNC1)c1ccn(S(=O)(=O)c2cccc(Cl)c2)c1-c1ccc(F)cc1 [Compound 28]
Cmax / ng/mL: 3500

* * *

assay: In vivo pharmacokinetic study, plasma and brain; set-up: species or system male Wistar rats; conditions: male, Wistar, po; brain, rat, 10 mg/kg p.o.
readout label: MRT

compound: O=C(N[C@H]1CCNC1)c1ccn(S(=O)(=O)c2cccc(Cl)c2)c1-c1ccc(F)cc1 [Compound 28]
observed result: 4.43 h
//
compound: O=C(N[C@@H]1CCNC1)c1ccn(S(=O)(=O)c2cccc(Cl)c2)c1-c1ccc(F)cc1 [Compound 27]
observed result: 3.02 h

* * *

assay: In vivo pharmacokinetic study, plasma and brain; set-up: species or system male Wistar rats; settings: male, Wistar, po; plasma, rat, 10 mg/kg p.o.
The entries below come with measured AUC(0-t) values attached.

compound string: O=C(N[C@H]1CCNC1)c1ccn(S(=O)(=O)c2cccc(Cl)c2)c1-c1ccc(F)cc1
u: ng·h/mL
AUC(0-t): 3390
--
compound string: O=C(N[C@@H]1CCNC1)c1ccn(S(=O)(=O)c2cccc(Cl)c2)c1-c1ccc(F)cc1
u: ng·h/mL
AUC(0-t): 1290

* * *

test: In vivo pharmacokinetic study, plasma and brain; set-up: species or system male Wistar rats; details: male, Wistar, po; brain, rat, 10 mg/kg p.o.
Cmax by entry:

compound string: O=C(N[C@H]1CCNC1)c1ccn(S(=O)(=O)c2cccc(Cl)c2)c1-c1ccc(F)cc1
Cmax (ng/g): 51.7

compound string: O=C(N[C@@H]1CCNC1)c1ccn(S(=O)(=O)c2cccc(Cl)c2)c1-c1ccc(F)cc1
Cmax (ng/g): 427

* * *

experiment: In vivo pharmacokinetic study, plasma and brain; design: species or system male Wistar rats; settings: male, Wistar, po; plasma, rat, 10 mg/kg p.o.
readout label: Tmax (min)

compound string: O=C(N[C@@H]1CCNC1)c1ccn(S(=O)(=O)c2cccc(Cl)c2)c1-c1ccc(F)cc1
readout label: Tmax
observed result: 5
--
compound string: O=C(N[C@H]1CCNC1)c1ccn(S(=O)(=O)c2cccc(Cl)c2)c1-c1ccc(F)cc1
readout label: Tmax
observed result: 5

* * *

biological target: 5-HT6R (Homo sapiens, UniProt P50406); test: Basal cAMP production (constitutive Gs signaling) in NG108-15 cells transiently expressing 5-HT6R, CAMYEL BRET; type: cell-based; parameters: expressed in transfected cells; host or cells: NG108-15 (transient, Lipofectamine 2000, cotransfected with the CAMYEL sensor); conditions: 5-HT6R-dependent Gs signaling, NG108-15 cells
Sequence (P50406 whole entry): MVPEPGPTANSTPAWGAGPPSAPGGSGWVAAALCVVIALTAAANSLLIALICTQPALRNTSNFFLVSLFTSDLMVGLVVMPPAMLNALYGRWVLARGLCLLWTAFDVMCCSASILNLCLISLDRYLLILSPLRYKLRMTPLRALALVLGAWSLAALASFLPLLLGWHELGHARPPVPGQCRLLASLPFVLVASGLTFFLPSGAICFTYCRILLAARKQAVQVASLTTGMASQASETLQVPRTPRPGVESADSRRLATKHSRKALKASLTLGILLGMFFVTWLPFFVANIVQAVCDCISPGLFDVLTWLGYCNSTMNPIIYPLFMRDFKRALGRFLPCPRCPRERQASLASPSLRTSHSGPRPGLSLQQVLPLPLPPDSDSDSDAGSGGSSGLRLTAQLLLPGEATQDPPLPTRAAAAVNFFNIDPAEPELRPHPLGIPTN
readout label: functional profile

compound string: O=C(N[C@@H]1CCNC1)c1ccn(S(=O)(=O)c2cccc(Cl)c2)c1-c1ccc(F)cc1
system name: 5-HT6R (Homo sapiens, UniProt P50406)
observed result: inverse agonist
--
compound string: O=C(N[C@H]1CCNC1)c1ccn(S(=O)(=O)c2cccc(Cl)c2)c1-c1ccccc1
system name: 5-HT6R (Homo sapiens, UniProt P50406)
observed result: inverse agonist
--
compound string: O=C(N[C@H]1CCNC1)c1ccn(S(=O)(=O)c2cccc(Cl)c2)c1-c1cccc(F)c1
system name: 5-HT6R (Homo sapiens, UniProt P50406)
observed result: inverse agonist
--
compound string: O=C(N[C@H]1CCNC1)c1ccn(S(=O)(=O)c2cccc(Cl)c2)c1-c1ccc(F)cc1
system name: 5-HT6R (Homo sapiens, UniProt P50406)
observed result: inverse agonist

* * *

target: hERG channel (Homo sapiens, UniProt Q12809); construct: Eurofins Cerep (contract assay); experiment: Eurofins Cerep off-target binding, % inhibition at 1 μM
Sequence (Q12809 whole entry): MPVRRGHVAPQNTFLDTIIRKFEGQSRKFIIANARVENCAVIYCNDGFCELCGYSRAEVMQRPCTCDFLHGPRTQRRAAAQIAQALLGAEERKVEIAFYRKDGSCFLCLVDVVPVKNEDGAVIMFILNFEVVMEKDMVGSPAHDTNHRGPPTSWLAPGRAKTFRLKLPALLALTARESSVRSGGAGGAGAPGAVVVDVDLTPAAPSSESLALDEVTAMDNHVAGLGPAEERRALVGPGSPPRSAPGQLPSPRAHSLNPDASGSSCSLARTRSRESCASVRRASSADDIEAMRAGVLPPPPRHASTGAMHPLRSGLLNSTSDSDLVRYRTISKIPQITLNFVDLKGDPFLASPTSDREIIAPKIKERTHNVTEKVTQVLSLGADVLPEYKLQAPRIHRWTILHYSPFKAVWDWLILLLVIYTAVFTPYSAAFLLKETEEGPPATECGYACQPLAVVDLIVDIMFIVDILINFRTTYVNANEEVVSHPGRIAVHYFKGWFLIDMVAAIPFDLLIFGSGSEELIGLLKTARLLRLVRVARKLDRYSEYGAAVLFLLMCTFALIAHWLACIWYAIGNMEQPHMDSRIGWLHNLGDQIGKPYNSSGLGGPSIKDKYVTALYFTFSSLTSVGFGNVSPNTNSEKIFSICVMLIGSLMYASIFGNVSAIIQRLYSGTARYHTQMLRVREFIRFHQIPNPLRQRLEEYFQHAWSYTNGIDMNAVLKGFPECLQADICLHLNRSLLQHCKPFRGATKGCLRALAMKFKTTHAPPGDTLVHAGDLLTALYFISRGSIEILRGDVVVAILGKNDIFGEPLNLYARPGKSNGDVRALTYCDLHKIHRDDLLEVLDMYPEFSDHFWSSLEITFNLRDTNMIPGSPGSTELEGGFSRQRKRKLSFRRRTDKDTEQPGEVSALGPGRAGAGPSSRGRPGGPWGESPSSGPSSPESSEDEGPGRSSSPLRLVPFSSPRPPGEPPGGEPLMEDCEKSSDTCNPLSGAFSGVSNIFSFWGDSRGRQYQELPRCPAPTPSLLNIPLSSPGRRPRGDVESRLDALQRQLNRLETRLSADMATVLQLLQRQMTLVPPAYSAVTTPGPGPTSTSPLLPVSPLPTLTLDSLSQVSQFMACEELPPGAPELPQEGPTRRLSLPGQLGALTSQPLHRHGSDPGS

compound string: O=C(N[C@@H]1CCNC1)c1ccn(S(=O)(=O)c2cccc(Cl)c2)c1-c1ccc(F)cc1
inhibition at 1 µM (%): 1

* * *

assay: In vivo pharmacokinetic study, plasma and brain; set-up: species or system male Wistar rats; details: male, Wistar, po; plasma, rat, 10 mg/kg p.o.

compound string: O=C(N[C@H]1CCNC1)c1ccn(S(=O)(=O)c2cccc(Cl)c2)c1-c1ccc(F)cc1
MRT [h]: 3.35

compound string: O=C(N[C@@H]1CCNC1)c1ccn(S(=O)(=O)c2cccc(Cl)c2)c1-c1ccc(F)cc1
MRT [h]: 2.72

* * *

target: 5-HT6R (Homo sapiens); assay: Inhibition of 5-CT-stimulated cAMP production in 1321N1 cells; assay type: cell-based; set-up: expressed in transfected cells; details: antagonism of 5-CT (1000 nM)-stimulated cAMP

compound string: O=C(N[C@H]1CCNC1)c1ccn(S(=O)(=O)c2cccc(Cl)c2)c1-c1ccc(F)cc1
u: nM
Kb: 7.6
--
compound string: O=C(N[C@H]1CCNC1)c1ccn(S(=O)(=O)c2cccc(Cl)c2)c1-c1ccccc1
u: nM
Kb: 35
--
compound string: O=C(N[C@@H]1CCNC1)c1ccn(S(=O)(=O)c2cccc(Cl)c2)c1-c1ccc(F)cc1
u: nM
Kb: 11.4
--
compound string: O=C(N[C@H]1CCNC1)c1ccn(S(=O)(=O)c2cccc(Cl)c2)c1-c1cccc(F)c1
u: nM
Kb: 6
